- System: Staphylococcus aureus
- procedure summary: In vitro antibacterial activity against methicillin resistant Staphylococcus aureus (MRSA) ATCC 33591
- Format: functional
experimental endpoint: MIC

>>> result("CNC(=O)C[C@@H]1NC(=O)c2csc(n2)-c2ccc(-c3nc(C(=O)N[C@@H](CCC(=O)O)C(=O)N4CCCC[C@H]4C(N)=O)cs3)nc2-c2csc(n2)-c2csc(n2)C(C(O)c2ccccc2)NC(=O)CNC(=O)c2nc(sc2COC)[C@H](C(C)C)NC(=O)c2nc1sc2C (some centres undefined)")
"4 µg/mL"
>>> result("CNC(=O)C[C@@H]1NC(=O)c2csc(n2)-c2ccc(-c3nc(C(=O)NCCO)cs3)nc2-c2csc(n2)-c2csc(n2)C(C(O)c2ccccc2)NC(=O)CNC(=O)c2nc(sc2COC)[C@H](C(C)C)NC(=O)c2nc1sc2C (some centres undefined)")
"0.125 µg/mL"
>>> result("CNC(=O)C[C@@H]1NC(=O)c2csc(n2)-c2ccc(-c3nc(C(=O)NCCCCO)cs3)nc2-c2csc(n2)-c2csc(n2)C(C(O)c2ccccc2)NC(=O)CNC(=O)c2nc(sc2COC)[C@H](C(C)C)NC(=O)c2nc1sc2C (some centres undefined)")
"0.125 µg/mL"
>>> result("CNC(=O)C[C@@H]1NC(=O)c2csc(n2)-c2ccc(-c3nc(C(=O)NCCCC(=O)O)cs3)nc2-c2csc(n2)-c2csc(n2)C(C(O)c2ccccc2)NC(=O)CNC(=O)c2nc(sc2COC)[C@H](C(C)C)NC(=O)c2nc1sc2C (some centres undefined)")
"0.125 µg/mL"

* * *

- Test system: Staphylococcus aureus
- procedure summary: In vitro antibacterial activity against methicillin resistant Staphylococcus aureus (MRSA) ATCC 33591
- Format: functional
Mark yes for MIC under 0.5 µg/mL, no if at or over.

>>> label_value("CNC(=O)C[C@@H]1NC(=O)c2csc(n2)-c2ccc(-c3nc(C(=O)NCC[C@H](O)C(=O)O)cs3)nc2-c2csc(n2)-c2csc(n2)C(C(O)c2ccccc2)NC(=O)CNC(=O)c2nc(sc2COC)[C@H](C(C)C)NC(=O)c2nc1sc2C (some centres not stated)")
"no"
>>> label_value("CNC(=O)C[C@@H]1NC(=O)c2csc(n2)-c2ccc(-c3nc(C(=O)N[C@@H](CC(=O)O)C(=O)N[C@@H](CC(=O)O)C(N)=O)cs3)nc2-c2csc(n2)-c2csc(n2)C(C(O)c2ccccc2)NC(=O)CNC(=O)c2nc(sc2COC)[C@H](C(C)C)NC(=O)c2nc1sc2C (some centres not stated)")
"no"
>>> label_value("CNC(=O)C[C@@H]1NC(=O)c2csc(n2)-c2ccc(-c3nc(C(=O)NCC(O)CO)cs3)nc2-c2csc(n2)-c2csc(n2)C(C(O)c2ccccc2)NC(=O)CNC(=O)c2nc(sc2COC)[C@H](C(C)C)NC(=O)c2nc1sc2C (some centres not stated)")
"yes"
>>> label_value("CNC(=O)C[C@@H]1NC(=O)c2csc(n2)-c2ccc(-c3nc(C(=O)N[C@@H](CC(=O)O)C(=O)NCCCCCC(=O)O)cs3)nc2-c2csc(n2)-c2csc(n2)C(C(O)c2ccccc2)NC(=O)CNC(=O)c2nc(sc2COC)[C@H](C(C)C)NC(=O)c2nc1sc2C (some centres not stated)")
"no"
>>> label_value("CNC(=O)C[C@@H]1NC(=O)c2csc(n2)-c2ccc(-c3nc(C(=O)NCC[N+]4([O-])CCOCC4)cs3)nc2-c2csc(n2)-c2csc(n2)C(C(O)c2ccccc2)NC(=O)CNC(=O)c2nc(sc2COC)[C@H](C(C)C)NC(=O)c2nc1sc2C (some centres not stated)")
"no"
>>> label_value("CNC(=O)C[C@@H]1NC(=O)c2csc(n2)-c2ccc(-c3nc(COC(=O)N(C)CCCC(=O)O)cs3)nc2-c2csc(n2)-c2csc(n2)C(C(O)c2ccccc2)NC(=O)CNC(=O)c2nc(sc2COC)[C@H](C(C)C)NC(=O)c2nc1sc2C (some centres not stated)")
"yes"

* * *

- Test system: Staphylococcus aureus
- procedure summary: In vitro antibacterial activity against methicillin resistant Staphylococcus aureus (MRSA) ATCC 33591
- Assay type: functional
The following compounds are listed with their measured MIC values.
experimental endpoint: MIC (mg/L)

>>> quantitative_result("CNC(=O)C[C@@H]1NC(=O)c2csc(n2)-c2ccc(-c3nc(C(=O)NCCCN)cs3)nc2-c2csc(n2)-c2csc(n2)C(C(O)c2ccccc2)NC(=O)CNC(=O)c2nc(sc2COC)[C@H](C(C)C)NC(=O)c2nc1sc2C (some centres undefined)")
1
>>> quantitative_result("CNC(=O)C[C@@H]1NC(=O)c2csc(n2)-c2ccc(-c3nc(COC(=O)N[C@H](C)C(=O)O)cs3)nc2-c2csc(n2)-c2csc(n2)C(C(O)c2ccccc2)NC(=O)CNC(=O)c2nc(sc2COC)[C@H](C(C)C)NC(=O)c2nc1sc2C (some centres undefined)")
0.5
>>> quantitative_result("CNC(=O)C[C@@H]1NC(=O)c2csc(n2)-c2ccc(-c3nc(C(=O)NCCNCCO)cs3)nc2-c2csc(n2)-c2csc(n2)C(C(O)c2ccccc2)NC(=O)CNC(=O)c2nc(sc2COC)[C@H](C(C)C)NC(=O)c2nc1sc2C (some centres undefined)")
2

* * *

- System: Staphylococcus aureus
- procedure summary: In vitro antibacterial activity against methicillin resistant Staphylococcus aureus (MRSA) ATCC 33591
- Format: functional
experimental endpoint: MIC (µg/mL)

>>> quantitative_result("CNC(=O)C[C@@H]1NC(=O)c2csc(n2)-c2ccc(-c3nc(C(=O)NCCC(=O)O)cs3)nc2-c2csc(n2)-c2csc(n2)C(C(O)c2ccccc2)NC(=O)CNC(=O)c2nc(sc2COC)[C@H](C(C)C)NC(=O)c2nc1sc2C (some centres not stated)")
0.5
>>> quantitative_result("CNC(=O)C[C@@H]1NC(=O)c2csc(n2)-c2ccc(-c3nc(C4=N[C@H](C(=O)N5CCC[C@H]5C(N)=O)CO4)cs3)nc2-c2csc(n2)-c2csc(n2)C(C(O)c2ccccc2)NC(=O)CNC(=O)c2nc(sc2COC)[C@H](C(C)C)NC(=O)c2nc1sc2C (some centres not stated)")
0.03

* * *

The following compounds are listed with their measured MIC values.
- Tested on: Staphylococcus aureus
- procedure summary: In vitro antibacterial activity against methicillin resistant Staphylococcus aureus (MRSA) ATCC 33591
- Type: functional
experimental endpoint: MIC (µg/mL)

>>> quantitative_result("CNC(=O)C[C@@H]1NC(=O)c2csc(n2)-c2ccc(-c3nc(COC(=O)NCCCCC(=O)O)cs3)nc2-c2csc(n2)-c2csc(n2)C(C(O)c2ccccc2)NC(=O)CNC(=O)c2nc(sc2COC)[C@H](C(C)C)NC(=O)c2nc1sc2C (some centres undefined)")
0.25
>>> quantitative_result("CNC(=O)C[C@@H]1NC(=O)c2csc(n2)-c2ccc(-c3nc(C(=O)NCCC[N+]4([O-])CCOCC4)cs3)nc2-c2csc(n2)-c2csc(n2)C(C(O)c2ccccc2)NC(=O)CNC(=O)c2nc(sc2COC)[C@H](C(C)C)NC(=O)c2nc1sc2C (some centres undefined)")
2
>>> quantitative_result("CNC(=O)C[C@@H]1NC(=O)c2csc(n2)-c2ccc(-c3nc(C(=O)NCCCCN=C(N)N)cs3)nc2-c2csc(n2)-c2csc(n2)C(C(O)c2ccccc2)NC(=O)CNC(=O)c2nc(sc2COC)[C@H](C(C)C)NC(=O)c2nc1sc2C (some centres undefined)")
4
>>> quantitative_result("CNC(=O)C[C@@H]1NC(=O)c2csc(n2)-c2ccc(-c3nc(COC(=O)N[C@@H](C)C(=O)O)cs3)nc2-c2csc(n2)-c2csc(n2)C(C(O)c2ccccc2)NC(=O)CNC(=O)c2nc(sc2COC)[C@H](C(C)C)NC(=O)c2nc1sc2C (some centres undefined)")
0.5
>>> quantitative_result("CNC(=O)C[C@@H]1NC(=O)c2csc(n2)-c2ccc(-c3nc(C(=O)NCC(O)CC(=O)O)cs3)nc2-c2csc(n2)-c2csc(n2)C(C(O)c2ccccc2)NC(=O)CNC(=O)c2nc(sc2COC)[C@H](C(C)C)NC(=O)c2nc1sc2C (some centres undefined)")
0.25
>>> quantitative_result("CNC(=O)C[C@@H]1NC(=O)c2csc(n2)-c2ccc(-c3nc(COC(=O)NCCCC(=O)O)cs3)nc2-c2csc(n2)-c2csc(n2)C(C(O)c2ccccc2)NC(=O)CNC(=O)c2nc(sc2COC)[C@H](C(C)C)NC(=O)c2nc1sc2C (some centres undefined)")
0.125
>>> quantitative_result("CNC(=O)C[C@@H]1NC(=O)c2csc(n2)-c2ccc(-c3nc(C(=O)N4CC(C(N)=O)C4)cs3)nc2-c2csc(n2)-c2csc(n2)C(C(O)c2ccccc2)NC(=O)CNC(=O)c2nc(sc2COC)[C@H](C(C)C)NC(=O)c2nc1sc2C (some centres undefined)")
0.06
>>> quantitative_result("CNC(=O)C[C@@H]1NC(=O)c2csc(n2)-c2ccc(-c3nc(C(=O)NCCCCCC(=O)O)cs3)nc2-c2csc(n2)-c2csc(n2)C(C(O)c2ccccc2)NC(=O)CNC(=O)c2nc(sc2COC)[C@H](C(C)C)NC(=O)c2nc1sc2C (some centres undefined)")
0.015
>>> quantitative_result("CNC(=O)C[C@@H]1NC(=O)c2csc(n2)-c2ccc(-c3nc(CNC(=O)NCC(O)CC(=O)O)cs3)nc2-c2csc(n2)-c2csc(n2)C(C(O)c2ccccc2)NC(=O)CNC(=O)c2nc(sc2COC)[C@H](C(C)C)NC(=O)c2nc1sc2C (some centres undefined)")
8

Values compiled from ChEMBL document CHEMBL1144979.
